From: PubChem BioAssay

# assayName: TOR pathway LAP4-GFP level changes – S. cerevisiae, multiplex flow cytometry, primary screen (AID 1873)
# testConditions: S. cerevisiae LAP4-GFP expression, 3 h, at 10 µM, active compounds read high
Records with an inconclusive call do not appear.
parameter: GFP response vs DMSO (%)
Answers are plain numbers, in %.

>>> valueobserved("Cc1ccc(/C=N/Nc2nc(C(C)(C)C)cs2)o1")
98.2
>>> valueobserved("O=C(O)[C@@H](O)c1ccccc1")
121

Below are 8 compounds. Give each one its GFP response vs DMSO.
1. CCOC(=O)c1ccc(N2C(=O)C(CC(=O)NC)N(CCc3ccc(OC)c(OC)c3)C2=S)cc1 (stereo not given)
2. CC(C)Oc1ccc(C2CC(=O)N(c3ccc(C(=O)O)cc3)C2=O)cc1 (stereo not given)
3. NC(N)=NC(=O)Cc1c(Cl)cccc1Cl
4. CC(=O)Oc1ccc2c(=O)c(Oc3ccccc3[N+](=O)[O-])coc2c1
5. O=C1C(Cc2ccccc2)NC(=S)N1c1ccccc1 (stereo not given)
6. N/C(=N\OC(=O)/C=C/c1ccccc1)c1ccc(Br)cc1
7. CC(OC(=O)c1cc(=O)[nH]c2ccccc12)C(=O)c1ccccc1 (stereo not given)
8. O=C(/C=C/c1ccc(F)cc1)N1CC[C@@]2(O)CCCC[C@H]2C1

Data returned:
[104, 137, 99.9, 78.7, 115, 101, 107, 125]
